Test system: K-562 (human chronic myeloid leukaemia)
experiment: MTT cytotoxicity assay, K-562
Type: cell-based
experimental_context: Homo sapiens, K562; MTT, 72 h exposure, three independent experiments; read-out: Cytotoxic activity IC50 (95% CI) K-562
Provide the reported pIC50 of each item.
Numbers only, as −log10 of the molar value.

Some solved cases for reference:
* CC1(C)OC2=C(C(=O)C(=O)c3ccccc32)C1n1cc(CNC2=CC(=O)c3cc4ccccc4cc3C2=O)nn1 (centres unmarked) [Compound 19e] | 5.09
* CC1(C)OC2=C(C(=O)C(=O)c3ccccc32)C1n1cc(CNC2=CC(=O)c3c(I)cccc3C2=O)nn1 (centres unmarked) [Compound 19a] | 5.92
* O=C1C(=O)c2ccccc2C2=C1CC(Cn1cc(CNC3=CC(=O)c4cc5ccccc5cc4C3=O)nn1)O2 (centres unmarked) [Compound 20e] | 5.12
* CC1(C)OC2=C(CC1Cn1cc(CNC3=CC(=O)c4c(O)cccc4C3=O)nn1)C(=O)C(=O)c1ccccc12 (centres unmarked) [Compound 21b] | 5.38

Below: the item to evaluate.
For record C#CCNC1=CC(=O)c2c(O)cccc2C1=O [Compound 18b] the listed pIC50 is 4.60

---

experiment: MTT cytotoxicity assay, L929 control line
Type: cell-based, mouse
experimental_context: mouse, L929 fibroblast cells (non-tumoral control line), 72 h exposure, read-out: Cytotoxic activity IC50 (95% CI) L929
1 (yes) if IC50 at 72 h is below 6 µM. 0 (no) if not; exact matches included in 0 (no).

Observe how each entry below is paired with its result.
* CC1(C)OC2=C(CC1Cn1cc(CNC3=CC(=O)c4c(O)cccc4C3=O)nn1)C(=O)C(=O)c1ccccc12 (stereo not drawn) [Compound 21b] | 1 (yes)
* COc1cccc2c1C(=O)C(NCc1cn(CC3CC4=C(O3)c3ccccc3C(=O)C4=O)nn1)=CC2=O (stereo not drawn) [Compound 20c] | 0 (no)
* O=C1C(=O)c2ccccc2C2=C1CC(Cn1cc(CNC3=CC(=O)c4c(I)cccc4C3=O)nn1)O2 (stereo not drawn) [Compound 20a] | 1 (yes)
* CC1(C)OC2=C(C(=O)C(=O)c3ccccc32)C1N=[N+]=[N-] (stereo not drawn) | 1 (yes)
* CC1(C)OC2=C(C(=O)C(=O)c3ccccc32)C1n1cc(CNC2=CC(=O)c3cc4ccccc4cc3C2=O)nn1 (stereo not drawn) [Compound 19e] | 1 (yes)
* COc1cccc2c1C(=O)C(NCc1cn(CC3CC4=C(OC3(C)C)c3ccccc3C(=O)C4=O)nn1)=CC2=O (stereo not drawn) [Compound 21c] | 1 (yes)
* CC1(C)OC2=C(CC1Cn1cc(CNC3=CC(=O)c4cccc(OCc5ccccc5)c4C3=O)nn1)C(=O)C(=O)c1ccccc12 (stereo not drawn) [Compound 21d] | 1 (yes)
* O=C1C(=O)c2ccccc2C2=C1CC(Cn1cc(CNC3=CC(=O)c4cc5ccccc5cc4C3=O)nn1)O2 (stereo not drawn) [Compound 20e] | 0 (no)
* O=C1C(=O)c2ccccc2C2=C1CC(Cn1cc(CNC3=CC(=O)c4c(O)cccc4C3=O)nn1)O2 (stereo not drawn) [Compound 20b] | 0 (no)
* COc1cccc2c1C(=O)C(NCc1cn(C3C4=C(OC3(C)C)c3ccccc3C(=O)C4=O)nn1)=CC2=O (stereo not drawn) [Compound 19c] | 0 (no)

Is the reported IC50 at 72 h for CC1(C)OC2=C(CC1Cn1cc(CNC3=CC(=O)c4c(I)cccc4C3=O)nn1)C(=O)C(=O)c1ccccc12 (stereo not drawn) [Compound 21a] strictly below 6 µM?
1 (yes)

Lab note: IC50 at 72 h threshold 6 µM. Does this compound come in strictly under it? C#CCNC1=CC(=O)c2cccc(OCc3ccccc3)c2C1=O [Compound 18d]
0 (no)

Criterion: IC50 at 72 h strictly below 6 µM. Is it met by C#CCNC1=CC(=O)c2c(O)cccc2C1=O [Compound 18b] ?
0 (no)

For this compound, is IC50 at 72 h lower than 6 µM? C#CCNC1=CC(=O)c2cccc(OC)c2C1=O [Compound 18c]
0 (no)
